Data origin: PubChem BioAssay (Tox21)

assay: qHTS assay to identify small molecule that activate the aryl hydrocarbon receptor (AhR) signaling pathway - cell viability counter screen (AID 743086); conditions: HepG2-AhR-luc viability, CellTiter-Fluor, 24 h; series mostly up to 70.3 µM;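 note: HepG2 liver cells carrying the AhR DRE luciferase reporter; nearly all actives have a fitted effect of over 45% in size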
Results filed as inconclusive are left out. Calls of active or inactive are those of the source. Calls come from the whole dose curve; as a rule, active = well fitted cell-killing curve with a large enough effect in the repeat runs; inconclusive = weak or mixed curves, or effect the other way; inactive = flat fitted curve, though single readings scatter.
Mark one answer only. Choices: active, inactive

{"Compound": "O=C(O)/C=C/C(=O)Nc1ccc(S(=O)(=O)Nc2nccs2)cc1", "Assigned Class": "inactive"}

Pending compound:
Task item: Short answer needed: outcome of this test for O=C(N[C@H](CO)[C@H](O)c1ccc([N+](=O)[O-])cc1)C(Cl)Cl ?
Reply: inactive

----------
test: A CellTox Green Cytotoxicity Assay to monitor cytotoxicity in HepG2 cells - 32 hour (AID 1224883); settings: CellTox Green fluorescence; series mostly up to 76.8 µM; note: nearly all actives have a fitted effect of over 50% in size
Results filed as inconclusive are left out. Activity calls are given as the source filed them. Calls follow the shape of the dose curve; as a rule, active = well fitted activation curve with a large enough effect in the repeat runs; inconclusive = weak or mixed curves; inactive = flat fitted curve, though single readings scatter.
# output must be one of Y for active, N for inactive

Task item: Returns: the outcome recorded for CN[C@H]1CC[C@@H](c2ccc(Cl)c(Cl)c2)c2ccc(S(N)(=O)=O)cc21 in this assay.
Reply: Y

Task item: Which outcome did this test record for the molecule C=C(C)C1CCC(C)CC1O (configuration not stated) ?
Reply: N

Task item: State the result this test recorded for NC(=O)C1CO1 (configuration not stated) .
Reply: N

Task item: Given NCc1cccc(C2CCN(C(=O)c3ccc(C#Cc4ccccc4F)o3)CC2)c1 , state the outcome it received in this test.
Reply: Y

Task item: What classification did CO[Si](OC)(c1ccccc1)c1ccccc1 end up with in this test?
Reply: N

Task item: Hello, I am checking results. What call was entered for C/C=C/C(=O)C1=C(C)C=CCC1(C)C ?
Reply: N

Task item: Tell me the recorded outcome of this test for N#CCCOCCC#N .
Reply: N

----------
assay: qHTS assay to identify small molecule antagonists of the androgen receptor (AR) signaling pathway - cell viability counter screen (AID 743033; note: nearly all actives have a fitted effect of over 45% in size); conditions: AR-bla HEK293 viability, CellTiter-Glo luminescence, 16 h; series mostly up to 58.5 µM
Inconclusive results are not listed. The source made the active and inactive calls. Calls come from the whole dose curve; as a rule, active = well fitted cell-killing curve with a large enough effect in the repeat runs; inconclusive = weak or mixed curves; inactive = no such curve, though single readings can be large or run the other way.
Respond with a class label; see YES (active), NO (inactive)

{"Molecule": "CCOC(=O)Cc1ccc(-c2ccccc2)cc1", "Assigned Class": "NO"}
{"Molecule": "O=P(O)(O)C(O)(Cn1ccnc1)P(=O)(O)O", "Assigned Class": "NO"}
{"Molecule": "NC(=O)[C@@H]1C[C@]2(NC(=O)NC2=O)c2cc(F)ccc2O1", "Assigned Class": "NO"}
{"Molecule": "CC[C@H]1OC(=O)C[C@@H](O)[C@H](C)[C@@H](O[C@@H]2O[C@H](C)[C@@H](O[C@H]3C[C@@](C)(O)[C@@H](O)[C@H](C)O3)[C@H](N(C)C)[C@H]2O)[C@@H](CC=O)C[C@@H](C)C(=O)/C=C/C(C)=C/[C@@H]1CO[C@@H]1O[C@H](C)[C@@H](O)[C@@H](OC)[C@H]1OC", "Assigned Class": "NO"}
{"Molecule": "C(=C\\c1ccncc1)/c1ccccc1", "Assigned Class": "NO"}
{"Molecule": "C=C1[C@H](CO)[C@@H](O)C[C@@H]1n1cnc2c(=O)[nH]c(N)nc21", "Assigned Class": "NO"}

Task item: Status in this test for CC(C)NCC1CCc2cc(CO)c([N+](=O)[O-])cc2N1 (stereo not drawn) ?
Reply: NO

Task item: Please let me know the test result on file for C[C@H](Cc1ccc(O)c(O)c1)[C@@H](C)Cc1ccc(O)c(O)c1 .
Reply: NO

Task item: How did this test come out for CCC(=O)OC(OP(=O)(CCCCc1ccccc1)CC(=O)N1C[C@H](C2CCCCC2)C[C@H]1C(=O)O)C(C)C (stereo partly drawn) ?
Reply: NO

Task item: I would be grateful if you could indicate the recorded call for CC1CCCCN1CCCOC(=O)c1ccccc1 (stereo not drawn) .
Reply: NO

Task item: Which outcome did this test record for the molecule SC1CCCCC1 ?
Reply: NO

Task item: Write down the call the test reported for this molecule. Item: O=c1[nH]c(=O)n([C@H]2C[C@H](O)[C@@H](CO)O2)cc1/C=C/Br
Reply: NO

Task item: Hi, sorry to bother you, what did the test record for COc1cccc(-c2ccc(/C=C\CN3CCCCCC3)cc2Cl)c1 ?
Reply: YES

----------
target: Cytochrome P450 1A2 (Homo sapiens) (UniProt P05177); assay: Cytochrome P450 Family 1 Subfamily A Member 2 (CYP1A2) small molecule antagonists: luciferase reporter qHTS assay (AID 1671199); details: P450-Glo CYP1A2 enzyme, luciferin luminescence, 1 h; series mostly up to 115 µM; note: nearly all actives have a fitted effect of over 50% in size
Sequence (P05177 whole entry, looked up): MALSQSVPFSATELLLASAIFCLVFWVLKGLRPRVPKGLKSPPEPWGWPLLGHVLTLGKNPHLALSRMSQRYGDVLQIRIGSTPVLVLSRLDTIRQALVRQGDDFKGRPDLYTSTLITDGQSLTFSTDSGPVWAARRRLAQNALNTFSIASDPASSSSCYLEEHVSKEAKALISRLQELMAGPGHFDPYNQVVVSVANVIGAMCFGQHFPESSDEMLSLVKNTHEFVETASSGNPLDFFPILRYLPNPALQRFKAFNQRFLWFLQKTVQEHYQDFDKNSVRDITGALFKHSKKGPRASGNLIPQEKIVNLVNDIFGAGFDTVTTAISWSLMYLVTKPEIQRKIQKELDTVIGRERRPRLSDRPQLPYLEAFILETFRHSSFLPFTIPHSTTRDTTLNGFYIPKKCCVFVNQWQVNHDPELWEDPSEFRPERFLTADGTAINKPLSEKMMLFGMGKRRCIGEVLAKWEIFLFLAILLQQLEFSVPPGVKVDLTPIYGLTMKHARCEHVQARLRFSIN
Records with an inconclusive call do not appear. Active and inactive are the calls of the source. The call rests on the fitted dose curve; in most records, active means well fitted inhibition curve with a large enough effect in the repeat runs; inconclusive means weak or mixed curves; inactive means no such curve, though single readings can be large or run the other way.
Please state which outcome applies, choosing from active, inactive

For orientation, consider the following solved cases.
{"Compound": "Cn1ccnc1", "Assigned Class": "inactive"}
{"Compound": "CCN(CC)c1ccc(C=O)cc1", "Assigned Class": "active"}
{"Compound": "CCC(O)CO (stereo not given)", "Assigned Class": "inactive"}
{"Compound": "CCc1c(C)cc(N)c(CC)c1N", "Assigned Class": "active"}
{"Compound": "Cc1cc(C)c(O)c(C(C)(C)C)c1", "Assigned Class": "active"}

Task item: Check the results log: what was the call for NCc1ccco1 ?
Reply: inactive

Task item: Look up the recorded call for Cc1ccc(N=Nc2c(O)ccc3ccccc23)c(C)c1 in this test.
Reply: active

Task item: Name the outcome recorded for CSc1ccc(O)cc1C in the assay.
Reply: active

Task item: // param item: CCCCCCCCCCCC(=O)Cl ; yields the recorded call
Reply: inactive

Task item: Each compound tested received a call. Report the one for CCCCCc1ccc(O)cc1 .
Reply: active

----------
assay: qHTS assay to identify small molecule antagonists of the estrogen related receptor signaling pathway with the pleiotropic PPARgamma coactivator (PGC) cell viability counter screen (AID 1224822;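 note: viability read after 17.5 h compound exposure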); conditions: ERR/PGC reporter cell line viability counter screen; series mostly up to 46.1 µM
Results filed as inconclusive are left out. The source made the active and inactive calls. Calls follow the shape of the dose curve; as a rule, active = well fitted cell-killing curve with a large enough effect in the repeat runs; inconclusive = weak or mixed curves, or effect the other way; inactive = flat fitted curve, though single readings scatter.
Outcome (select one): active, inactive

Record excerpt, results attached:
{"Molecule": "CC[N+](CC)(CC)CC(=O)Nc1c(C)cccc1C", "Assigned Class": "inactive"}
{"Molecule": "C[C@H](NC(=O)/C(C#N)=C/c1ccc(O)c(O)c1)c1ccccc1", "Assigned Class": "inactive"}
{"Molecule": "O=C(O)CC1CCCc2ccccc2C1O (stereo unspecified)", "Assigned Class": "inactive"}
{"Molecule": "CC(C)[C@@H]1CC[C@@H](C)C[C@@H]1P(=O)(c1ccccc1)c1ccccc1", "Assigned Class": "inactive"}
{"Molecule": "Cn1c(=O)c2[nH]c(C3CCCC3)nc2n(C)c1=O", "Assigned Class": "inactive"}
{"Molecule": "c1ccc2c(c1)CCC[C@H]2Nc1nc2ccccc2[nH]1", "Assigned Class": "inactive"}
{"Molecule": "c1ccc(C2CN3CCSC3=N2)cc1 (stereo unspecified)", "Assigned Class": "inactive"}
{"Molecule": "CCCCCCCCCCCCCCC[C@H](O)[C@H](N)CO", "Assigned Class": "inactive"}
{"Molecule": "C#CCn1c(=O)c2c(ncn2C)n(C)c1=O", "Assigned Class": "inactive"}
{"Molecule": "CC(C)C[C@H](NC(=O)C1OC1C(=O)O)C(=O)NCCCCN=C(N)N (stereo partly specified)", "Assigned Class": "inactive"}

Task item: Outcome? N[C@@H](Cc1ccc(O)c(O)c1)C(=O)O
Reply: inactive

Task item: Tell me the assay call for c1ccc2c(c1)CC(N1CCN(c3cccc4c3OCCO4)CC1)C2 please.
Reply: inactive

Task item: Just curious, what result did CC(C)C[C@H](NC(=O)[C@@H](O)[C@H](N)Cc1ccccc1)C(=O)O get here?
Reply: inactive

Task item: Which result was noted for this molecule in the test: N[C@H]1CONC1=O
Reply: inactive

Task item: Assay outcome for NC/C=C\C(=O)O : what was it?
Reply: inactive

Task item: So what was the verdict on OC[C@H]1O[C@H](n2cnc3c(N[C@H]4CCC[C@@H]4O)ncnc32)[C@H](O)[C@@H]1O in this test?
Reply: inactive

Task item: Dear all, I need the recorded test outcome for COc1cc(N)c(Cl)cc1C(=O)OCCN1CCCCC1 , thank you.
Reply: inactive

Task item: Check the results log: what was the call for CC(C)(C=O)Cc1cc(C(C)(C)C)c(O)c(C(C)(C)C)c1 ?
Reply: inactive

----------
molecular target: Nuclear receptor ROR-gamma (Homo sapiens); experiment: qHTS assay to identify small molecule antagonists of the retinoid-related orphan receptor gamma (ROR-gamma) signaling pathway (AID 1159521; note: nearly all actives have a fitted effect of over 50% in size); details: Tet-on RORgamma CHO cells, RORE-luciferase, 16 h; series mostly up to 92.4 µM
Records with an inconclusive call do not appear. The source made the active and inactive calls. Calls follow the shape of the dose curve; as a rule, active = well fitted inhibition curve with a large enough effect in the repeat runs; inconclusive = weak or mixed curves, or effect the other way; inactive = no such curve, though single readings can be large or run the other way.
Valid outcomes are listed here; reply with one: label 1 (active), label 0 (inactive)

Below are worked cases with known answers.
{"Compound": "CC(O)(c1ccc(Cl)cc1)c1ccc(Cl)cc1", "Assigned Class": "label 0"}
{"Compound": "CC(CC(C)(C)C)CC(C)(C)CC(C)(C)C (centres undefined)", "Assigned Class": "label 0"}

Task item: Call for entry O=C1OC(O)C(C(Cl)Cl)=C1Cl (centres undefined) :
Reply: label 1

Task item: Assay outcome for CCOC=C(C(=O)OCC)C(=O)OCC : what was it?
Reply: label 0

Task item: Which outcome was entered for the compound O[Si](c1ccccc1)(c1ccccc1)c1ccccc1 in this test?
Reply: label 1
